MEASURED_TARGET: Platelet-derived growth factor receptor alpha (Homo sapiens)
TEST_PROTOCOL: Inhibition of PDGFRalpha at 10 uM
ASSAY_READOUT: inhibition (%)
One number for each entry, in %.

# count of solved cases: 6
CCCC(=O)Oc1cccc(-c2nc(N3CCOCC3)c3cc4ncccc4n3n2)c1 : 14
O=C(Oc1cccc(-c2nc(N3CCOCC3)c3cc4ncccc4n3n2)c1)c1ccco1 : 22.2
CCC(=O)Oc1cccc(-c2nc(N3CCOCC3)c3cc4ncccc4n3n2)c1 : 13
CCN(CC)CCNC(=O)c1c(C)[nH]c(/C=C2\C(=O)Nc3ccc(F)cc32)c1C : 93
Oc1cccc(-c2nc(N3CCOCC3)c3cc4ncccc4n3n2)c1 : 41.2
CC(=O)Oc1cccc(-c2nc(N3CCOCC3)c3cc4ncccc4n3n2)c1 : 21.8

Batch request: inhibition for each of the following compounds.
1. CCCC(CCC)C(=O)Oc1cccc(-c2nc(N3CCOCC3)c3cc4ncccc4n3n2)c1
2. O=C(Oc1cccc(-c2nc(N3CCOCC3)c3cc4ncccc4n3n2)c1)c1ccncc1
3. C=CC(=O)Oc1cccc(-c2nc(N3CCOCC3)c3cc4ncccc4n3n2)c1

**A:**
[28.7, 40, 29.4]

====

TEST_PROTOCOL: Inhibition of PI3K-mediated Akt pathway by Western blot analysis
ASSAY_READOUT: Akt pathway inhibition (qualitative)

Oc1cccc(-c2nc(N3CCOCC3)c3cc4ncccc4n3n2)c1 : Dose-dependent effect
CCC(=O)Oc1cccc(-c2nc(N3CCOCC3)c3cc4ncccc4n3n2)c1 : Dose-dependent effect
O=C(Oc1cccc(-c2nc(N3CCOCC3)c3cc4ncccc4n3n2)c1)c1ccco1 : Dose-dependent effect

====

MEASURED_TARGET: Macrophage-stimulating protein receptor (Homo sapiens)
TEST_PROTOCOL: Inhibition of RON at 10 uM
ASSAY_READOUT: inhibition (%)
Numbers only, in %.

Each molecule below has a reported value. Please supply its inhibition.
1. Cc1[nH]c(/C=C2\C(=O)Nc3ccc(S(=O)(=O)N(C)c4cccc(Cl)c4)cc32)c(C)c1C(=O)N1CCN(C)CC1
2. CCC(=O)Oc1cccc(-c2nc(N3CCOCC3)c3cc4ncccc4n3n2)c1
3. CC(=O)Oc1cccc(-c2nc(N3CCOCC3)c3cc4ncccc4n3n2)c1
4. O=C(Oc1cccc(-c2nc(N3CCOCC3)c3cc4ncccc4n3n2)c1)c1ccncc1
5. O=C(Oc1cccc(-c2nc(N3CCOCC3)c3cc4ncccc4n3n2)c1)c1ccco1
6. C=CC(=O)Oc1cccc(-c2nc(N3CCOCC3)c3cc4ncccc4n3n2)c1
7. CCCC(CCC)C(=O)Oc1cccc(-c2nc(N3CCOCC3)c3cc4ncccc4n3n2)c1

**A:**
52.2
17.6
9.4
27.2
4.2
3.3
23.1

List reported inhibition for each of these molecules:
1. CCCC(=O)Oc1cccc(-c2nc(N3CCOCC3)c3cc4ncccc4n3n2)c1
2. Oc1cccc(-c2nc(N3CCOCC3)c3cc4ncccc4n3n2)c1

**A:**
1: 7.4; 2: 37

====

MEASURED_TARGET: Platelet-derived growth factor receptor beta (Homo sapiens)
TEST_PROTOCOL: Inhibition of PDGFRbeta at 10 uM
ASSAY_READOUT: inhibition (%)
Answers are plain numbers, in %.

These recorded examples may help you get a feel for the data.
O=C(Oc1cccc(-c2nc(N3CCOCC3)c3cc4ncccc4n3n2)c1)c1ccco1 : 13.5
CCN(CC)CCNC(=O)c1c(C)[nH]c(/C=C2\C(=O)Nc3ccc(F)cc32)c1C : 90.6
O=C(Oc1cccc(-c2nc(N3CCOCC3)c3cc4ncccc4n3n2)c1)c1ccncc1 : 34.7
CC(=O)Oc1cccc(-c2nc(N3CCOCC3)c3cc4ncccc4n3n2)c1 : 0

Turning now to a further molecule:
**Q:** Specify reported inhibition for the molecule shown: C=CC(=O)Oc1cccc(-c2nc(N3CCOCC3)c3cc4ncccc4n3n2)c1
**A:** 6.3
